Cited source for all entries: patent US20160137639A1

Biological target: mouse RORγ (Mus musculus, UniProt P51450)
Construct: mouse, NM_011281.2 and from Ile251 to Lys516; expressed in transfected cells; host or cells: CHO cells (transient co-transfection with pG5-Luc reporter)
Sequence (P51450 251-516): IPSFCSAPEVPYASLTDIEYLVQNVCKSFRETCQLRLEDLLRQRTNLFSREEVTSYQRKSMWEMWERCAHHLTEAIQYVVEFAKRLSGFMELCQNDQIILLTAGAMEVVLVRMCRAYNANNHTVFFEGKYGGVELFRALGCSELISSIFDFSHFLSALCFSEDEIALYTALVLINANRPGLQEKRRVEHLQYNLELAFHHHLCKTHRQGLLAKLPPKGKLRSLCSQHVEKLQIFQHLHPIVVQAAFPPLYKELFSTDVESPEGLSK
Assay: Luciferase reporter gene assay of inhibitory effect against RORγ transcriptional activity (GAL4-mRORγ plasmid in CHO cells)
Format: cell-based
Conditions: read-out: LUC EC50 (μM) mRORg
Readout name: EC50

q: Please look at this compound and report its EC50: Cc1ccc(NC(=O)CC(CCCN(C)C)c2nnc(CCCC(C)C)n2C2CC2)c(C)c1 (racemic)
a: > 3 µM

q: Please look at this compound and report its EC50: CC(=O)N1C[C@H](C(=O)Nc2ccc(C)cc2C)[C@@H](c2nnc([C@H]3C[C@@H](c4ccccc4)C3)n2C2CC2)C1 (racemic)
a: < 3 µM

q: Please look at this compound and report its EC50: `O=C(CCc1nnc(C2Cc3ccccc3C2)n1C1CC1)Nc1cccc2ccccc12`
a: < 3 µM

q: Please look at this compound and report its EC50: `CC(=O)N1CC([C@@H](CC(=O)Nc2ccc(C)cc2C)c2nnc([C@H]3C[C@@H](CC(C)C)C3)n2C2CC2)C1`
a: < 3 µM

q: Please look at this compound and report its EC50: `CC(C)C(F)(F)c1cc(-c2onc([C@@H](CCC(=O)O)CC(=O)Nc3ccc(Cl)cc3F)c2C2CC2)no1`
a: < 3 µM

q: Please look at this compound and report its EC50: `COCc1ccc(C)c(NC(=O)CCc2nnc(CCC(C)C)n2C2CC2)c1`
a: > 3 µM

q: Please look at this compound and report its EC50: `COc1cc(C)ccc1CNC(=O)[C@H]1CCN(C(C)=O)[C@@H]1c1nnc(CCCC(C)(C)C)n1C1CC1`
a: < 3 µM

q: Please look at this compound and report its EC50: `Cc1ccc(NC(=O)C[C@H](CCC(=O)O)c2noc(-c3cc(C4CC(C)(C)C4)on3)c2C2CC2)c(Cl)c1`
a: < 3 µM

q: Please look at this compound and report its EC50: `Cc1ccc(NC(=O)C[C@H](CCC(=O)O)c2noc(-c3cc(CC(C)C)on3)c2C2CC2)c(F)c1`
a: < 3 µM

q: Please look at this compound and report its EC50: `Cc1ccc(NC(=O)CCc2nnc(CCC3CCC(F)(F)CC3)n2C2CC2)c(C)c1`
a: < 3 µM

q: Please look at this compound and report its EC50: CC(=O)N1C[C@H](C(=O)Nc2ccc(C)cc2C)[C@@H](c2nnc(C3CC(C(C)C)C3)n2C2CC2)C1 (stereo partly drawn)
a: < 3 µM

q: Please look at this compound and report its EC50: `CCn1c(CCC(=O)Nc2cccc3ccccc23)nnc1CCc1ccccc1`
a: < 3 µM

q: Please look at this compound and report its EC50: `CC(C)CCc1nnc(CCC(=O)NC[C@H](O)c2ccccc2)n1C1CC1`
a: > 3 µM

q: Please look at this compound and report its EC50: `Cc1ccc(NC(=O)C[C@H](CC(=O)O)c2noc(-c3cc(C(F)(F)C(C)(C)C)on3)c2C2CC2)c(Cl)c1`
a: < 3 µM

q: Please look at this compound and report its EC50: `Cc1ccc(C(F)(F)F)cc1NC(=O)CCc1nnc(CCC(C)C)n1C1CC1`
a: > 3 µM
